- assayNotes: Phase II recurrent glioblastoma trial (NCT02525692)
- protocolConditions: human, in vivo, 625 mg
propertyLabel: concentration at 2 h (ng/mL)
Report only the number, with the unit ng/mL understood.

Ask: What value of concentration at 2 h has been recorded for this entry: Cc1ccccc1CN1C(=O)C2=C(CCN(Cc3ccccc3)C2)N2CCN=C12 [ONC201]
Reply: 2600

Numbers sourced from patent US12102639B2.
